- test method notes: soluble on expression in E. coli; label from the status in PepcDB or PDB records
reported property: soluble on expression in E. coli

>>> val("MGSDKIHHHHHHMSFKDIQADFIEAIRRPDLPCPHGIAPQRMGVYRELFFNNVSGFVNSGFPVLKSLYGEAQWQAQLRQFFTEHDCQNPLFIGIAGEFLAFLSARERQVDEPPFLLELAHYEWLELVVATAMEQGDEAAFDDTALAQQAYLDARLGLASHARVAQYHFEVEKISPQYQPDTPLPSPCYFCLYRDSDDEVSFLKLNPMTAQLLAVLEANTGIKYIELLQKMQALYPNFDGQQLREGIAQVLGQMAVRGVVVQKLQ")
"not soluble"
>>> val("MGSDKIHHHHHHMPSIFEKYHLKQVINTSGRMTALGVSTPRPEVVEAAMAGMNQYFEMKDLVNKTGEYIAKLLDVEGATVVSCASAGIAQSVAAVLVKDSDWLLENLHVTPIENNEIVLPKGHNVNFGAPVGTMVALGGGKLVEAGYANECSAQQLAAAITPRTAAILYIKSHHCVQKSMLNVAQAAEVARQHNVPLIVDAAAEEDLQCYYRMGADLVIYSGAKAIEGPTSGLVIGKTQYVEWVKRQSMGIGRAMKVGKEGILGLTCAIEHYLTASKESGQQMVAKMTPFIEQLNTLNGVTARVVWDSAGRDIARAEIKFDEATTGVKTGDLVNALKQGEYAIYFRGYKANEGIIEADVRSVNAQQLEVVARRIAEVLNKEKQA")
"not soluble"

###

- test method notes: soluble on expression in E. coli; label from the status in PepcDB or PDB records
reported property: soluble on expression in E. coli

Here's what some known entries look like.
>>> val("MHKNGKFIPLLALGFTFFLSGCDYFADKHLVEEMKEQQKEQETKINLLEKQQKEQEAKINLLEKQQATIINTTKKVTEVVGRVERKQRLFDYTELDPSQTHYFIINNGNIGLAGRILSIEPIDNGSVIHLDLVNLLSIPVSNLAFNMTWGTKKPSEAKDLPRWKQLLLNTKMDSTIELLPGAWTNVTLTLKGVSPNNLKYLKIGIDMENVIFDSIQPINDTKKKPKK")
"not soluble"
>>> val("MAKKNPIQPGPEGYIPTPAAFQGCDLPPPGKALLYGEIVDEEVAMREAAKALLTRRNPTIFPGPLVLWGWNADAMEKAKAVLELAMEIPNCRIIPMPDYRPKYPKIDPEAEINPNHPNLTILHNKIEACIFVGVHCHYANLSLRMIRAGTNCFTIALCAEMGHEDAMVSLRDVHADEIRKFRDVVVEVRKELGIEWEPKLPPENPSLPKEDWVKISPLDFGEYAYLLIPRRGEIVEESE")
"not soluble"
>>> val("MAVTREDLEQNRLRAALGDSPVASTLLTEAALEASLASTLARLSAAPCEGQDAWVFGYGSLIWNPMIFHTEVARATVRGYHRGFYLYSRINRGTWDNPGLVLGLDRGGSCSGVAFRVPRAHAEREFRVLWRREMLTGAYLPRWLPTEIHGERILALAFVMNRTHEAYAGRLPDERVVGCLHKAVGLYGPAREYLQRTLIGLASNGLHDPYLDRLWQRLQAMDINAANAPSQTADTDGTGPLPDPYLSALEHHHHHH")
"not soluble"
>>> val("MIKVGICDTTFARYDMGGAAIDELKKHTAGIKIIRRTVPGIKDLPVACKKLIEEEGCEMVMALGMPGPEEKDKVCAHEASTGLIQAQLMTNTHILEVFVHEDEEDDPEELKVLADNRAREHAQNLIMMLFKPDRLTREAGMGLREGKPDAGPL")
"not soluble"
>>> val("FPVETVQIPVNDEYAVHGWLAHGMSGHGAVLLVHSMRSNRLEMLGRARFLNNQGYHVLMIDLQAHGETPGDRITFGARESADVAAAVGYLRSTFPHDRIAAIGATLGAAAIVLANPPLKLDAMILESLHPTFAEAVANRLKLHLGNTGEYLQFLLLPYFSFLLDLPVNQLNPVDRIGNIAIPVLFIAGTLDRHTTQSEVKRLYDAALPPKELWIVEGAGHYNMHTFAGKSYEMQIADFLSTYL")
"not soluble"

Field: next sequence
Need soluble on expression in E. coli of SAAAADERSPEDGEDEEEEEQLVLVELSGIIDSDFLSKCENKCKVLGIDTERPILQVDSCVFAGEYEDTLGTCVIFEENVEHADTEGNNKTVLKYKCHTMKKLSMTRTLLTEKKEGEENIGGVEWLQIKDNDFSYRPNMICNFLHENEDEEVVASAPDKSLELEEEEIQMNDSSNLSCEQEKPMHLEIEDSGPLIDIPSETEGSVFMETQMLP , thanks.
not soluble
